assay: NCI Yeast Anticancer Drug Screen. Data for the rad50 strain (AID 155); details: S. cerevisiae rad50 strain growth inhibition; at 50.0 µM
Compounds without any hit were thinned out: in the full panel of roughly 79,000, 15% have a hit. Calls of active or inactive are those of the source. Rule as the data show it: active = growth inhibition above about 70%; inactive = the rest.
Output constraint: value belongs to active, inactive

Reference set (4 entries):
compound: CCCC(O)C(C)(C)C (centres undefined)
category_label: inactive
//
compound: CC(C)(C)OC(=O)[N+](=N)C(=O)C1CCC(=O)N1C(=O)OCc1ccccc1 (centres undefined)
category_label: inactive
//
compound: O=C(O)c1cc([N+](=O)[O-])cc(P(=O)(O)O)c1
category_label: inactive
//
compound: O=S(=O)(Cc1ccccc1)/C(=C\c1ccccc1)c1ccccc1
category_label: inactive

Challenge: Would you mind telling me which call this test gave Cc1cc2c(cc1C)NC1=C(N2)OC(c2ccc(Cl)cc2)C1=O (centres undefined) ?
Response given: inactive

Challenge: Would you mind telling me which call this test gave `Nc1ncnc2c1ncn2-c1ccccc1` ?
Response given: inactive

Challenge: Would you mind telling me which call this test gave `CC(=O)N1CC(=O)N2C(=O)/C(=C/c3ccc(Cl)cc3)N=C12` ?
Response given: inactive

Challenge: Would you mind telling me which call this test gave `CC1=NN(C(=O)c2ccc(Cl)cc2)C(=O)/C1=C/c1ccc(O)cc1` ?
Response given: inactive

Challenge: Would you mind telling me which call this test gave C[N+]12CCCCC1CC2 (centres undefined) ?
Response given: inactive
